B1: library; numbered along this chain (parent)
chain: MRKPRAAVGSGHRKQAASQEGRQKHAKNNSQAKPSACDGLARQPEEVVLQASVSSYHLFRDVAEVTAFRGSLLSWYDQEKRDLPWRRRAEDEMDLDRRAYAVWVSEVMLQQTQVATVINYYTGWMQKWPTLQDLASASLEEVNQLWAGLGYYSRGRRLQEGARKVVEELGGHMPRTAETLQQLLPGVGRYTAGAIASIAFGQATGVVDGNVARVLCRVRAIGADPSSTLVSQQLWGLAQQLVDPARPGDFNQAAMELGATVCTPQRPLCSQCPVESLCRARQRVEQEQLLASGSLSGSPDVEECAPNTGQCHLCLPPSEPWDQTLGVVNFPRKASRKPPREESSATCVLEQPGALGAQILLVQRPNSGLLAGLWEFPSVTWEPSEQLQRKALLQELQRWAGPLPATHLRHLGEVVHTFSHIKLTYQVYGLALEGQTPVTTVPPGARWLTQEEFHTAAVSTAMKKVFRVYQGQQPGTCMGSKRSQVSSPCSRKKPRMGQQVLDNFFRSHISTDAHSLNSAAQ

variants of: B1; experiment: 8OG:A repair function score (normalized; synonymous = 0, nonsense = -1) (normalized log-likelihood score); higher = more repair activity (WT-like); details: with 8OG:A DNA repair reporter (GFP) in HEK-293 MUTYH KO cells;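 note: cells sorted at 72 h after reporter transfection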
Please provide measured 8OG:A repair function score for the entries that follow.

Guide cases for 8OG:A repair function score, answers given:
- mutation: "E395L"
  quantity-name: "8OG:A repair function score"
  assay-result: -0.23
- mutation: "T112F"
  quantity-name: "8OG:A repair function score"
  assay-result: -1.17
- mutation: "R213C"
  quantity-name: "8OG:A repair function score"
  assay-result: -1.03
- mutation: "K481L"
  quantity-name: "8OG:A repair function score"
  assay-result: -0.0084

For the 5 variants below, give their 8OG:A repair function score values.
1. E256S
2. Y469K
3. G401Q
4. G171I
5. T176R

[-0.507, -0.326, -0.521, -0.703, -0.102]

I have 2 variants here; please give me 8OG:A repair function score for each one.
1. E350G
2. P474A

1: -0.128; 2: -0.0123
